- System: RAW264.7 cells
- CONDITION SUMMARY: peptide 150 μg/mL, 24 h, WST-1, mean ± SD, three repeats
Where a SMILES comes first, the peptide text is derived from it.

MOLECULE	Cell survival rate, RAW264.7 / %
CC[C@@H](C)[C@@H](NC(=O)[C@@H](CCCNC(=N)N)NC(=O)[C@@H](CCCNC(=N)N)NC(=O)[C@@H](Cc1ccccc1)NC(=O)[C@@H](CC(C)C)NC(=O)[C@@H](CCCNC(=N)N)NC(=O)[C@H](N)CCCNC(=N)N)C(=O)N[C@H](CC(C)C)C(=O)N[C@H](CCCNC(=N)N)C(=O)N[C@H](Cc1c[nH]c2ccccc12)C(=O)N[C@H](CC(C)C)C(N)=O [RW-BP100-All-D] (HELM PEPTIDE1{[dR].[dR].[dL].[dF].[dR].[dR].[dI].[dL].[dR].[dW].[dL].[am]}$$$$V2.0)	23.37
CC[C@H](C)[C@H](NC(=O)[C@H](CCCNC(=N)N)NC(=O)[C@H](CCCNC(=N)N)NC(=O)[C@H](Cc1ccccc1)NC(=O)[C@H](CC(C)C)NC(=O)[C@H](CCCNC(=N)N)NC(=O)[C@@H](N)CCCNC(=N)N)C(=O)N[C@H](CC(C)C)C(=O)N[C@@H](CCCNC(=N)N)C(=O)N[C@@H](Cc1c[nH]c2ccccc12)C(=O)N[C@@H](CC(C)C)C(N)=O [RW-BP100-8D] (HELM PEPTIDE1{R.R.L.F.R.R.I.[dL].R.W.L.[am]}$$$$V2.0)	20.30

Source listed as paper PMC8822125.
